- TEST_SYSTEM: T1, NMDAR2B immunogen peptide, free (YKDAHEKDDF-amide) (human)
- T1 construct: Free form: no radiolabel and no further conjugation; also called free NMDAR2B immunogen peptide; free peptide
- T1 peptide: YKDAHEKDDF-NH2
- ASSAY_EXPLANATION: competition ELISA against peptide coupled to biotinylated BSA
- Experimental: ELISA assay: 96 well plates (ELISA Microlon 66 (Greiner Bio-one); #655061) were coated with Affinipure anti-human IgG antibodies (which bind to Fabs) (Jackson Immunoresearch Laboratories; #109-005-0060). […] Plates were washed and incubated with a mixture of 0.007% H₂O₂ and Amplex® Ultrared Reagent (Molecular Probes) for one hour, and fluorescence was read at excitation at 550 nm and fluorescence at 590 nm on a SYNERGY™ HT Multi Detection Reader to (BioTek®). […]
Ends that are not written are not given here.

BINDER	binding result
Fab7 (Fab, V domains shown, also called Ab7 (IgG form with the same VH and VL)) VH: EVQLVESGGGLVQPGGSLRLSCAASGFNFSSSSIHWVRQAPGKGLEWVASISSSYGYTYYADSVKGRFTISADTSKNTAYLQMNSLRAEDTAVYYCARTVRGSKKPYFSGWAMDYWGQGTLVTVSS VL: DIQMTQSPSSLSASVGDRVTITCRASQSVSSAVAWYQQKPGKAPKLLIYSASSLYSGVPSRFSGSRSGTDFTLTISSLQPEDFATYYCQQGSHLITFGQGTKVEIK	no binding
Fab9 (Fab, V domains shown, also called Ab9 (IgG form with the same VH and VL)) VH: EVQLVESGGGLVQPGGSLRLSCAASGFNLSYSSMHWVRQAPGKGLEWVASISPYSGSTYYADSVKGRFTISADTSKNTAYLQMNSLRAEDTAVYYCARYYWYYYYGFDYWGQGTLVTVSS VL: DIQMTQSPSSLSASVGDRVTITCRASQSVSSAVAWYQQKPGKAPKLLIYSASSLYSGVPSRFSGSRSGTDFTLTISSLQPEDFATYYCQQYVGYGSPITFGQGTKVEIK	no binding
Fab8 (Fab, V domains shown, also called Ab8 (IgG form with the same VH and VL)) VH: EVQLVESGGGLVQPGGSLRLSCAASGFNIYYSYMHWVRQAPGKGLEWVASISSSYGYTYYADSVKGRFTISADTSKNTAYLQMNSLRAEDTAVYYCARTVRGSKKPYFSGWAMDYWGQGTLVTVSS VL: DIQMTQSPSSLSASVGDRVTITCRASQSVSSAVAWYQQKPGKAPKLLIYSASSLYSGVPSRFSGSRSGTDFTLTISSLQPEDFATYYCQQASYLITFGQGTKVEIK	no binding
Fab5 (Fab, V domains shown, also called Ab5 (IgG form with the same VH and VL)) VH: EVQLVESGGGLVQPGGSLRLSCAASGFNLYSSYMHWVRQAPGKGLEWVASIYSSYSSTYYADSVKGRFTISADTSKNTAYLQMNSLRAEDTAVYYCARTVRGSKKPYFSGWAMDYWGQGTLVTVSS VL: DIQMTQSPSSLSASVGDRVTITCRASQSVSSAVAWYQQKPGKAPKLLIYSASSLYSGVPSRFSGSRSGTDFTLTISSLQPEDFATYYCQQGAGLITFGQGTKVEIK	no binding
